// reported folding stability dG unfold for each item listed
- assayProcedure: folding stability dG unfold from chymotrypsin proteolysis; higher = more stable

{"chain": "SAGGSAGGSAGGKPKKVILIEADTLEEALAAAEALAPPGAKVTVTLVERDGKLYLLVTVDSAGGSAGGSAGG [r7_877_TrROS_Hall]", "unitOfMeasure": "kcal/mol", "folding stability dG unfold": 3.75}
{"chain": "SAIKIEEIKDVNPENKNIRIKIEMPGGPHEIPIPAKSEMDVEEALDLILDWFERHFPPGHKMRIEEIEISAG [r14_422_TrROS]", "unitOfMeasure": "kcal/mol", "folding stability dG unfold": -0.0828}
{"chain": "SAGGSAGGSAKAKIKKVEVEKEGDKLRVTAEIELEDGYVLKVSFEFKDDEIKMEIEIVPLKDSAGGSAGGSA [r18_79_TrROS_Hall]", "unitOfMeasure": "kcal/mol", "folding stability dG unfold": 3.38}
{"chain": "SAGGSAGGSAKPVLEVEITVEVNGKLYKVRARVELEETPDGLVLKVEVELENGEKFEFTLKLSAGGSAGGSA [r18_54_TrROS_Hall]", "unitOfMeasure": "kcal/mol", "folding stability dG unfold": 5.13}
{"chain": "SAGGSAPSISYTDPNITTITVNPPYITTTRPDGTTTVYKVNNGGDITKLKTTPPVPPAAATDASVASAGGSA [r15_393_JUSTAS]", "unitOfMeasure": "kcal/mol", "folding stability dG unfold": 0.421}
{"chain": "SAGGPPVTLTLTLTFTETRTVRNPATGETVTVEKVTLTLTITLEPGMSKEQLEALLKELRELFPSLESAGGS [r8_306_TrROS_Hall]", "unitOfMeasure": "kcal/mol", "folding stability dG unfold": 5.15}

====

- assayProcedure: folding stability dG unfold from trypsin proteolysis; higher = more stable

{"chain": "SAGGSAGGMTIEEKAEELEEELKKKYPDMEVKVEVDPEKGIVKITITDPKNPGKTTELTFPVEESAGGSAGG [r6_478_JUSTAS]", "folding stability dG unfold": "4.2 kcal/mol"}
{"chain": "SAGGSAGGSAGDWIKFEYTFKWNFFDPDGDLLMNMTVRVTIEIPIPPVPKPVKPSPNDDNSAGGSAGGSAGG [r17_325_TrROS]", "folding stability dG unfold": "3.52 kcal/mol"}
{"chain": "SAEKIYYKVKVKVEIEKDGKPDIELEIEFIVSPEIPPEKVKEFIEKFLKSKGYKIKKIEIETEPIPSLESAG [r14_979_TrMRF]", "folding stability dG unfold": "3.95 kcal/mol"}
{"chain": "GSSMTVEVSESVVPGTGKKILHVTVTFGGSDPEVARAQALAYVEKETGLPVVSVTVTRAPDSWTVNMTVVGS [r1_337_JUSTAS]", "folding stability dG unfold": "2.86 kcal/mol"}
{"chain": "SMEITLLSTDPTPGGMTTALWETPNRKVTIFKPPSENYYIVTVEIPGTGKTKTLRFPKNVSPEEIVKKLGSA [r9_522_JUSTAS]", "folding stability dG unfold": "1.88 kcal/mol"}
{"chain": "SAGGMEEIEVEFEFTLPDGRTLRLTVRVRRFDGGIVVEVDVGGEEEEEREFMEEVAREIAERIAEEESAGGS [r8_416_TrMRF]", "folding stability dG unfold": "2.92 kcal/mol"}
{"chain": "SAGGMPYTLVGEKTESLGEGNTVVTKTYKPPDGTYTVETTTITTDPENGSTSTTSTTTTIPPNTPEALSAGG [r19_173_JUSTAS]", "folding stability dG unfold": "-1.12 kcal/mol"}
{"chain": "SAGGSAKTITIYAPDLPLSEAIETLERLIKELGLTPVSVSVSYNPETGTVTITVTLPNGDTLTLHVSAGGSA [r15_958_TrMRF]", "folding stability dG unfold": "2.18 kcal/mol"}
{"chain": "SAGGSAGGKKKKPPPLVVVKIEITNPNGEKKELTLVFPSLEDAKAAIEALLPPGYTAKVEIKPLSAGGSAGG [r6_289_TrROS_Hall]", "folding stability dG unfold": "3.16 kcal/mol"}
{"chain": "SAGGSAGAPLVLAEVELDPETGEVRIRVYDPVTGKVYEYTTPGSLADAIREIERETGIPITEVVVASAGGSA [r15_101_TrMRF]", "folding stability dG unfold": "3.47 kcal/mol"}
{"chain": "SAMTITVPPDVSLEQIAKLLGYPNLKSFTKRKVTPNLTPATLTVPEDPNKVIKVLYRPADNYTEVIVLQSAG [r14_713_JUSTAS]", "folding stability dG unfold": "1.02 kcal/mol"}

====

- assayProcedure: folding stability dG unfold from chymotrypsin proteolysis; higher = more stable

{"chain": "SAGGSAGGSAGGAMPNDVKVTTTTFTGTETLTLTDASGTPTSSTKTVTTTRTSVFPDTTSAGGSAGGSAGGS [r10_1212_JUSTAS]", "unitOfMeasure": "kcal/mol", "folding stability dG unfold": 0.733}
{"chain": "SAGGNTIMIPMDPPQAREFAKNFIGEFLDQAEENPDRPIEIMVPGPEGRYITIRVDPKEGNLEIEVVPSAGG [r13_216_TrROS]", "unitOfMeasure": "kcal/mol", "folding stability dG unfold": -0.125}
{"chain": "SAGGSAGGSAGGMLTAVFTTPGNVRRLVPFSSEEEARALAEAEGVEVEFLDPAEAARLLSAGGSAGGSAGGS [r10_66_JUSTAS]", "unitOfMeasure": "kcal/mol", "folding stability dG unfold": -0.497}
{"chain": "SGATLFIGRFPGEGTLIAVAKLPNGKEIVISFGNYPEGIAGIAALARELDPRAEIKHIELVPPDSVPPEFSA [r9_137_TrMRF]", "unitOfMeasure": "kcal/mol", "folding stability dG unfold": 1.49}
{"chain": "SMPEILDVREDPDAPGALTFRVKLPDGEATVVIPYDPETGTFTAVRYYPDGEEVREFDSFEDALEAILEDSA [r9_366_TrMRF]", "unitOfMeasure": "kcal/mol", "folding stability dG unfold": 1.46}
{"chain": "SAGGSAGGSEWTIESIRPRPDGSLIARVRPEGVNVSVEVEFDTLEELLAFAKLLEELGGKVTGSAGGSAGGS [r20_177_TrMRF]", "unitOfMeasure": "kcal/mol", "folding stability dG unfold": 1.98}
{"chain": "SAGGIKEFADTLQDHGGTVTVEPVNNGSLKVSIQHRDPEDGRMYRMEIEIPPENNKLEIDDWEPYPNSAGGS [r16_613_TrROS]", "unitOfMeasure": "kcal/mol", "folding stability dG unfold": 0.31}
{"chain": "SAGGVVEVEVPDLSLEEALERVREEYPDVPEFTLTLPSGERVEFRVEGDRVEVVRREPLGPRPPELESAGGS [r8_225_JUSTAS]", "unitOfMeasure": "kcal/mol", "folding stability dG unfold": 1.51}
{"chain": "SPVSLSFTTAPSGLPTVTSASQPADGSLLLTLTEPATGATTTLTLPPGLPPGVERTVTLPGPDGATTLTVGS [r1_43_JUSTAS]", "unitOfMeasure": "kcal/mol", "folding stability dG unfold": 0.723}
{"chain": "SALEIEIEQDEDGNMRISVYLPGWKPIEEQPVPPGDGMKTFIIKLPDRVLMITFTNGGIEPNPVPLNDISAG [r14_403_TrROS]", "unitOfMeasure": "kcal/mol", "folding stability dG unfold": 2.69}

====

Entries and their measured folding stability dG unfold follow.
- assayProcedure: folding stability dG unfold from trypsin proteolysis; higher = more stable

{"chain": "SAGGSAGGSAMPFRVKVPPGSRVLVTRYLPGGLEREEVELSEDEDELVVEAESGVVEVRVLDSAGGSAGGSA [r18_124_TrMRF]", "folding stability dG unfold, kJ/mol": 3.93}
{"chain": "SAGGSAGGSKNMVMVEIPFEHKVKQPDPPDGKWRQHEHKPTIPYMIPPEDAEELLNSPALKKISAGGSAGGS [r12_1015_TrROS]", "folding stability dG unfold, kJ/mol": 0.579}
{"chain": "SAGPWMPYYVKVKFPDEEKLEKLVDEIQDESGFNMQVKKNPENGTRTVRVNMPPNIMEALKKHGFEIVSAGG [r19_306_TrROS]", "folding stability dG unfold, kJ/mol": 1.74}
{"chain": "SSWEKLSTLTLPSTGLTVTFYYDPSTNSTAVKVTDGAGPELSEKVLSDDETFTLPDGVSIKLPKGAEPASSA [r9_340_JUSTAS]", "folding stability dG unfold, kJ/mol": 1.4}
{"chain": "SAGGSAGGSAEVEIEFVSYDPSTGRLVRKRVKLKLLPDPKGGPVEVVEVEVDPGGPVPAGASAGGSAGGSAG [r3_397_TrMRF]", "folding stability dG unfold, kJ/mol": 8}
{"chain": "SAGGSAGGSAEVEIEVDKETKELYIKDSNGKVKKIKVKVVKVEVKKPVVTLPKEELSEEELKSAGGSAGGSA [r18_59_TrROS_Hall]", "folding stability dG unfold, kJ/mol": 3.42}

Data credit: the supplement of paper PMC12764529
